In this section, each of the compounds is paired with its reported Efficacy.
# System: Blumeria graminis f.sp. hordei
# Protocol Details: Blumeria test (barley)/preventive
# Format: in vivo
# Stated Conditions: preventive, 500 ppm, evaluated 7 days after inoculation
Assay Endpoint: Efficacy (%)

{"columns": ["Compound", "Target", "Measurement Units", "Recorded Measurement"],
 "data": [
  ["Cn1nc(C(F)F)c(C(=O)Nc2ccsc2CC[Si](C)(C)C)c1F", "Blumeria graminis f.sp. hordei", "%", 100],
  ["Cn1nc(C(F)F)c(C(=O)Nc2ccsc2CC2CCCCC2)c1Cl", "Blumeria graminis f.sp. hordei", "%", 94],
  ["CC(C)CCc1sccc1NC(=O)c1c(C(F)F)nn(C)c1Cl", "Blumeria graminis f.sp. hordei", "%", 94],
  ["Cn1nc(C(F)F)c(C(=O)Nc2ccsc2CC[Si](C)(C)C)c1Cl", "Blumeria graminis f.sp. hordei", "%", 92],
  ["CCC(C)C(C)Cc1sccc1NC(=O)c1c(C(F)F)nn(C)c1Cl (stereo not drawn)", "Blumeria graminis f.sp. hordei", "%", 100],
  ["CCC(CC(C)C)c1sccc1NC(=O)c1c(C(F)F)nn(C)c1Cl (stereo not drawn)", "Blumeria graminis f.sp. hordei", "%", 94],
  ["CC(C)CC(C)c1sccc1NC(=O)c1c(C(F)F)nn(C)c1F (stereo not drawn)", "Blumeria graminis f.sp. hordei", "%", 100],
  ["Cn1nc(C(F)F)c(C(=O)Nc2ccsc2CCC(C)(C)C)c1Cl", "Blumeria graminis f.sp. hordei", "%", 94],
  ["CC(C)CC(C)c1sccc1NC(=O)c1c(C(F)F)nn(C)c1Cl (stereo not drawn)", "Blumeria graminis f.sp. hordei", "%", 100]
]}
